# System: MAP3K15
# study conditions: concentration: 1 μM,replicates: in singlicate; n = 1;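 further: KINOMEscan kinase panel screen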
result type: %Inh (%)
Entry rule: numbers only, all in %.

Here's what some known entries look like.
[[record]]
compound = "CN(C)CC(O)COc1ccc(Nc2nccc(-c3cnn4nc(N5CCOCC5)ccc34)n2)cc1 (centres unmarked)"
system_tested = "MAP3K15"
unit_label = "%"
measured = 59

[[record]]
compound = "Nc1nc(Nc2ccccc2)cc(-c2ccc3c(N)n[nH]c3c2)n1"
system_tested = "MAP3K15"
unit_label = "%"
measured = 10

[[record]]
compound = "C=CC(=O)Nc1cc2c(Nc3ccc(F)c(Cl)c3)ncnc2cc1OCCCN1CCOCC1"
system_tested = "MAP3K15"
unit_label = "%"
measured = 0

[[record]]
compound = "Cc1ccc2c(-c3ccncc3)c(-c3ccc(F)cc3)nn2c1.Cl"
system_tested = "MAP3K15"
unit_label = "%"
measured = 0

[[record]]
compound = "CCN(CC)CCOc1ccc(Nc2ncc3cc(-c4c(Cl)cccc4Cl)c(=O)n(C)c3n2)cc1"
system_tested = "MAP3K15"
unit_label = "%"
measured = 0

[[record]]
compound = "Cc1n[nH]c2ccc(-c3cc(OC[C@@H](N)Cc4ccccc4)cnc3-c3ccoc3)cc12.O=C(O)C(F)(F)F.O=C(O)C(F)(F)F"
system_tested = "MAP3K15"
unit_label = "%"
measured = 0


Suppose we examine the compound NC(=O)c1cc(-c2ccccc2)cc2c(C3CCNCC3)c[nH]c12 ; what %Inh value has been reported?
9

Then what about the compound Cl.Cl.Nc1nc(-c2ccc3c(N)n[nH]c3c2)cc(N2CCCC(NC(=O)c3ccccc3)C2)n1 (centres unmarked) ?
0

* * *

%Inh for assorted compounds
# System: FYN
# study conditions: concentration: 1 μM,replicates: in singlicate; n = 1
Entry rule: numbers only, all in %.

Here's what some known entries look like.
[[record]]
line_notation = "Cc1cc2cn[nH]c2cc1-c1cccc2c(N)c(C(N)=O)nnc12"
result_type = "%Inh"
measured = 20

[[record]]
line_notation = "CC(C)Nc1cc(-c2ccc3c(N)n[nH]c3c2)nc(N)n1"
result_type = "%Inh"
measured = 33

[[record]]
line_notation = "C[C@H]1Oc2cc(cnc2N)-c2c(nn(C)c2C#N)CN(C)C(=O)c2ccc(F)cc21"
result_type = "%Inh"
measured = 19

[[record]]
line_notation = "Cl.Cl.NC[C@H](Cc1ccc(C(F)(F)F)cc1)NC(=O)c1cc(Br)c(-c2ccnc3[nH]ccc23)s1"
result_type = "%Inh"
measured = 15

[[record]]
line_notation = "O=C(NCCCN1CCOC1=O)c1cnc(NCc2cc(Cl)ccc2Cl)nc1NC1CCCC1"
result_type = "%Inh"
measured = 12

[[record]]
line_notation = "CCn1c(-c2nonc2N)nc2c(C#CC(C)(C)O)nc(OCCN)cc21.Cl.Cl"
result_type = "%Inh"
measured = 0

[[record]]
line_notation = "Cl.Oc1cc(-c2nc(-c3ccccc3)[nH]c2-c2ccncc2)ccc1Cl"
result_type = "%Inh"
measured = 40

[[record]]
line_notation = "NC(=O)c1cc(-c2ccccc2)cc2c(C3CCNCC3)c[nH]c12"
result_type = "%Inh"
measured = 21

[[record]]
line_notation = "CN(C)CCOc1ccc(-c2cc(-c3c[nH]nc3-c3ccccn3)ccn2)cc1"
result_type = "%Inh"
measured = 15

[[record]]
line_notation = "C[C@@H](Oc1cc(-c2cnn(C3CCNCC3)c2)cnc1N)c1c(Cl)ccc(F)c1Cl"
result_type = "%Inh"
measured = 15


Suppose we examine the compound CC(C)N1C(=O)Cc2cc(Nc3ncc(C(F)(F)F)c(NCc4cccc(S(C)(=O)=O)c4)n3)ccc21 ; what %Inh value has been reported?
4

Then what about the compound Cc1ccc(-n2nc(C(C)(C)C)cc2NC(=O)Nc2ccc(OCCN3CCOCC3)c3ccccc23)cc1 ?
0

Then what about the compound C[C@@H]1CCN(C(=O)CC#N)C[C@@H]1N(C)c1ncnc2[nH]ccc12 ?
8
